Target: QacR(E57Q/E58Q) (Staphylococcus aureus, UniProt P0A0N4, E57Q/E58Q)
Sequence (P0A0N4 1-188 E57Q/E58Q): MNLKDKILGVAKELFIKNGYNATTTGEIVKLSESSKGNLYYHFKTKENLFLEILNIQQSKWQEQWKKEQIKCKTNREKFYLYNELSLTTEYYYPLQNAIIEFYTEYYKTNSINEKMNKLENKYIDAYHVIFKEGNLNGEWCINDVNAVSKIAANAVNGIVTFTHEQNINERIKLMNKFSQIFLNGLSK
Experiment: Intrinsic tryptophan fluorescence quenching, QacR
Type: binding
reported metric: Kd (nM)
Numeric answer only, unit nM assumed.

COc1ccc2cc3[n+](cc2c1OC)CCc1cc2c(cc1-3)OCO2 [Be, berberine] = 320

Lab note: next compound to report on.
Incoming: Write down Kd measured for item CN(C)c1ccc(C(=C2C=CC(=[N+](C)C)C=C2)c2ccccc2)cc1 [MG, malachite green]
Outgoing: 1990

Where do the numbers come from? From paper PMC2646753.
